Recorded values, source PubChem BioAssay AID602481.

test system: 7,8-diaminopelargonic acid synthase BioA (Mycobacterium tuberculosis); experiment: M. tuberculosis BioA enzyme inhibitors, primary screen, biochemical, plate reader, single point, HTS (AID 602481); settings: purified M. tuberculosis BioA enzyme, at 9.99 µM, hits give high values
About 340 (0.094%) of roughly 360,000 compounds were called active. The sample as a whole holds a higher share of actives than the screen did.
Assay metric: inhibition (%)
Unit % implied. Number only.

- Chemical smiles: "Cc1ccc(S(=O)(=O)Nc2ccc3c(c2)CC(=O)N([C@@H](C)CO)C[C@H](C)[C@H](CN(C)Cc2ccc(C(=O)Nc4ccccc4N)cc2)O3)cc1"
  Target desc: "7,8-diaminopelargonic acid synthase BioA (Mycobacterium tuberculosis)"
  inhibition (%): -1.91

input: Bench note: what inhibition did `C[C@H](CO)N1C[C@H](C)[C@H](CN(C)Cc2cccc(C(=O)O)c2)Oc2ncc(-c3ccccc3F)cc2C1=O` show?
output: -3.23

input: # input compound: `C[C@@H]1CN([C@H](C)CO)C(=O)Cc2cc(NS(=O)(=O)c3ccc(F)cc3)ccc2O[C@@H]1CN(C)S(=O)(=O)c1ccc(F)cc1` ; wanted: its inhibition
output: 4.14

input: Query (compound): `CCCN1C[C@H](C)[C@@H](OC)CN(C)C(=O)c2ccc(NC(=O)c3cnccn3)cc2OC[C@H]1C` ; field requested: inhibition
output: -1.47

input: Recorded inhibition for `CCCc1cn(CC[C@@H]2CC[C@@H](NC(=O)CCN3CCCCC3)[C@H](CO)O2)nn1` , please?
output: -2.51

input: I would be grateful if you could share the reported inhibition for `C[C@@H]1CN([C@@H](C)CO)C(=O)c2cc(C#C[C@@H](C)O)cnc2O[C@H]1CN(C)CC1CCOCC1` .
output: -0.205

input: Could you tell me which inhibition is on file for `Cc1ccc(S(=O)(=O)N(C)C[C@@H]2Oc3ccc(NS(=O)(=O)c4ccc(F)cc4)cc3CC(=O)N([C@@H](C)CO)C[C@H]2C)cc1` ?
output: 2.21

input: Param item = `COCCNC(=O)C[C@H]1CC[C@@H]2[C@H](COc3ccc(NC(=O)Nc4cccc(F)c4)cc3C(=O)N2C)O1` ; retrieve measured inhibition.
output: 44.7

input: Entry `CC(C)C#Cc1cnc2c(c1)C(=O)N([C@@H](C)CO)C[C@@H](C)[C@@H](CN(C)C(=O)CN1CCOCC1)O2` : reported inhibition = ?
output: -1.21

input: Report inhibition for `CC(C)NC(=O)N(C)C[C@H]1Oc2c(NS(=O)(=O)c3ccc(Cl)cc3)cccc2C(=O)N([C@@H](C)CO)C[C@H]1C` please.
output: -1.39

input: inhibition lookup needed for `Cn1nccc1/C=N\NC(=O)c1ccc(Cl)cc1` , thanks.
output: 69.1

input: So what does the record say about inhibition for `CO[C@H]1CN(C)C(=O)c2ccc(NS(C)(=O)=O)cc2OC[C@@H](C)N(Cc2ccccc2)C[C@@H]1C` ?
output: -2.35

input: What does the record list as inhibition for `O=C(C[C@H]1C[C@H]2c3cc(NC(=O)Nc4ccc(F)cc4)ccc3O[C@H]2[C@@H](CO)O1)NCC1CC1` ?
output: 0.529

input: What inhibition value was documented for this compound, `CC(C)NC(=O)N1[C@@H]2CN(C(=O)C3CCCCC3)c3ccccc3[C@@H]2[C@@H]1CO` ?
output: -4.4

input: Can you share its inhibition? I mean this compound: `COc1ccc(S(=O)(=O)N(C)C[C@H]2Oc3c(NS(=O)(=O)c4ccc(F)cc4)cccc3C(=O)N([C@H](C)CO)C[C@H]2C)cc1`
output: -2.2

input: Given the entry `C[C@H](CO)N1C[C@H](C)[C@@H](CN(C)C)Oc2ccc(NS(=O)(=O)c3cccs3)cc2C1=O` , report its measured inhibition.
output: 2.81
